Entries and their total protein half-life in vivo
Test: total protein half-life in vivo (active degradation + dilution); higher = more stable protein
Conditions: E. coli NCM3722 delta-hslV; growth: N-lim chemostat; doubling time 6 h
Reported endpoint: total protein half-life in vivo (h)

INSERT INTO assay_data (chain_sequence, unit_descriptor, value_reported) VALUES
  ('MKLNIRAQTAQNQHNNSPIVLVHGLFGSLDNLGVLARDLVNDHNIIQVDMRNHGLSPRDPVMNYPAMAQDLVDTLDAQQIDKATFIGHSMGGKAVMALTALASDRIDKLVAIDIAPVDYHVRRHDEIFAAINAVSESDAQTRQQAAAIMRQHLNEEGVIQFLLKSFVDGEWRFNVPVLWDQYPHIVGWEKIPAWDHPALFIPGGNSPYVSEQYRDDLLAQFPQARAHVIAGAGHWVHAEKPDAVLRAIRRYLND', 'h', 5.14),
  ('MQENQQITKKEQYNLNKLQKRLRRNVGEAIADFNMIEEGDRIMVCLSGGKDSYTMLEILRNLQQSAPINFSLVAVNLDQKQPGFPEHVLPEYLEKLGVEYKIVEENTYGIVKEKIPEGKTTCSLCSRLRRGILYRTATELGATKIALGHHRDDILQTLFLNMFYGGKMKGMPPKLMSDDGKHIVIRPLAYCREKDIQRFADAKAFPIIPCNLCGSQPNLQRQVIADMLRDWDKRYPGRIETMFSAMQNVVPSHLCDTNLFDFKGITHGSEVVNGGDLAFDREEIPLQPACWQPEEDENQLDELRLNVVEVK', 'h', 0.983),
  ('MATTQQSGFAPAASPLASTIVQTPDDAIVAGFTSIPSQGDNMPAYHARPKQSDGPLPVVIVVQEIFGVHEHIRDICRRLALEGYLAIAPELYFREGDPNDFADIPTLLSGLVAKVPDSQVLADLDHVASWASRNGGDVHRLMITGFCWGGRITWLYAAHNPQLKAAVAWYGKLTGDKSLNSPKQPVDIATDLNAPILGLYGGQDNSIPQESVETMRQALRAANAKAEIIVYPDAGHAFNADYRPSYHAASAEDGWQRMLEWFKQYGGKKSL', 'h', 4.01),
  ('MRTTIAVVLGAISLTSAFVFADKPDVARSANDEVSTLFFGHDDRVPVNDTTQSPWDAVGQLETASGNLCTATLIAPNLALTAGHCLLTPPKGKADKAVALRFVSNKGLWRYEIHDIEGRVDPTLGKRLKADGDGWIVPPAAAPWDFGLIVLRNPPSGITPLPLFEGDKAALTAALKAAGRKVTQAGYPEDHLDTLYSHQNCEVTGWAQTSVMSHQCDTLPGDSGSPLMLHTDDGWQLIGVQSSAPAAKDRWRADNRAISVTGFRDKLDQLSQK', 'h', 6.26),
  ('MKRAPLITGLLLISTSCAYASSGGCGADSTSGATNYSSVVDDVTVNQTDNVTGREFTSATLSSTNWQYACSCSAGKAVKLVYMVSPVLTTTGHQTGYYKLNDSLDIKTTLQANDIPGLTTDQVVSVNTRFTQIKNNTVYSAATQTGVCQGDTSRYGPVNIGANTTFTLYVTKPFLGSMTIPKTDIAVIKGAWVDGMGSPSTGDFHDLVKLSIQGNLTAPQSCKINQGDVIKVNFGFINGQKFTTRNAMPDGFTPVDFDITYDCGDTSKIKNSLQMRIDGTTGVVDQYNLVARRRSSDNVPDVGIRIENLGGGVANIPFQNGILPVDPSGHGTVNMRAWPVNLVGGELETGKFQGTATITVIVR', 'h', 6.04);
